activity at 10 µM overview
- Tested on: COLO 205
- test.protocol: NCI-60 one-dose SRB screening
- Assay type: cell-based
- experimental.conditions: Homo sapiens, COLO 205, Colon Cancer, 10 µM one dose, 48 h, read-out: growth percentage
API: value field is a number in %; no unit string.

Completed entries (count: 2):
{"columns": ["molecule", "unit", "activity at 10 µM"],
 "data": [
  ["Cc1nn(-c2ccc(Br)cc2)c2ncnc(Nc3ccc(OCc4c(-c5ccccc5)no[n+]4[O-])cc3)c12", "%", 117],
  ["Cc1nc(Nc2ccc(OCc3c(-c4ccccc4)no[n+]3[O-])cc2)c2c(C)nn(-c3ccc(Br)cc3)c2n1", "%", 94.4]
]}

[ask] So what does the record say about activity at 10 µM for `Cc1nn(-c2ccccc2)c2ncnc(Nc3ccc(OCc4c(-c5ccccc5)no[n+]4[O-])cc3)c12` ?
[reply] 116

[ask] Please look up its activity at 10 µM: O=c1[nH]c(CCl)nc2c1cnn2-c1ccccc1 [13a]
[reply] 114

[ask] activity at 10 µM lookup needed for O=c1[nH]c(CNc2ccc(NCc3c(-c4ccccc4)no[n+]3[O-])cc2)nc2c1cnn2-c1ccccc1 [14a] , thanks.
[reply] 101

[ask] Query: activity at 10 µM; subject: Cc1nn(-c2ccc(Br)cc2)c2nc(CCl)[nH]c(=O)c12 [13c]
[reply] 103

[ask] # query: activity at 10 µM of entry `Cc1nc(Nc2ccc(OCc3c(-c4ccccc4)no[n+]3[O-])cc2)c2cnn(-c3ccc(Br)cc3)c2n1`
[reply] 119

[ask] Field request: activity at 10 µM | item: Cc1nn(-c2ccccc2)c2nc(CCl)[nH]c(=O)c12 [13b]
[reply] 110

[ask] # lookup: activity at 10 µM of `[O-][n+]1onc(-c2ccccc2)c1COc1ccc(Nc2ncnc3c2cnn3-c2ccc(Br)cc2)cc1`
[reply] 105

###

- Tested on: COLO 205
- test.protocol: NCI-60 one-dose SRB screening
- Assay type: cell-based
- experimental.conditions: Homo sapiens, COLO 205, Colon Cancer, 10 µM one dose, 48 h, read-out: growth percentage
readout.label: activity at 10 µM (%)
Just the number in %, nothing appended.

Study these solved cases before continuing.
{"columns": ["molecule", "unit", "quantitative.result"],
 "data": [
  ["Cc1nn(-c2ccc(Br)cc2)c2nc(CNc3ccc(NCc4c(-c5ccccc5)no[n+]4[O-])cc3)[nH]c(=O)c12 [14c]", "%", 115],
  ["[O-][n+]1onc(-c2ccccc2)c1CNc1ccc(Nc2nc(C(F)(F)F)nc3c2cnn3-c2ccc(Br)cc2)cc1 [12b]", "%", 74.6],
  ["Nc1ccc(NCc2c(-c3ccccc3)no[n+]2[O-])cc1 [compound 11]", "%", 121]
]}

# next molecule below
[ask] What value of activity at 10 µM on COLO 205 does Cc1nc(Nc2ccc(OCc3c(-c4ccccc4)no[n+]3[O-])cc2)c2c(C)nn(-c3ccccc3)c2n1 [6d] have?
[reply] 107

###

Consider the following compounds and their measured activity at 10 µM readings.
- System: M14
- test.protocol: NCI-60 one-dose SRB screening
- Type: cell-based
- experimental.conditions: Homo sapiens, M14, Melanoma, 10 µM one dose, 48 h, read-out: growth percentage
Give just the number in %; leave the unit off.

Solved entries:
{"columns": ["compound", "unit", "activity at 10 µM"],
 "data": [
  ["[O-][n+]1onc(-c2ccccc2)c1COc1ccc(Nc2ncnc3c2cnn3-c2ccccc2)cc1 [6a]", "%", 104],
  ["[O-][n+]1onc(-c2ccccc2)c1CNc1ccc(Nc2nc(C(F)(F)F)nc3c2cnn3-c2ccc(Br)cc2)cc1 [12b]", "%", 68.2],
  ["Cc1nn(-c2ccccc2)c2nc(CNc3ccc(NCc4c(-c5ccccc5)no[n+]4[O-])cc3)[nH]c(=O)c12 [14b]", "%", 106],
  ["Cc1nc(Nc2ccc(OCc3c(-c4ccccc4)no[n+]3[O-])cc2)c2cnn(-c3ccccc3)c2n1 [6b]", "%", 103],
  ["Cc1nc(Nc2ccc(OCc3c(-c4ccccc4)no[n+]3[O-])cc2)c2c(C)nn(-c3ccccc3)c2n1 [6d]", "%", 96.2],
  ["[O-][n+]1onc(-c2ccccc2)c1COc1ccc(Nc2ncnc3c2cnn3-c2ccc(Br)cc2)cc1 [6e]", "%", 102],
  ["Cc1nc(Nc2ccc(OCc3c(-c4ccccc4)no[n+]3[O-])cc2)c2c(C)nn(-c3ccc(Br)cc3)c2n1 [6h]", "%", 89.5]
]}

Now let's try a different one.
[ask] Given the compound Cc1nn(-c2ccccc2)c2ncnc(Nc3ccc(OCc4c(-c5ccccc5)no[n+]4[O-])cc3)c12 [6c] , what is its reported activity at 10 µM?
[reply] 90.3

All values here come from paper PMC8880564.
